# Test system: CAOV3
# experiment.summary: Primary qHTS to identify gynecologic anti-cancer compounds using libraries of approved drugs and bioactive compounds (AID 1345084); also: % is scaled to controls: 0 for no effect and ±100 for the full control effect; nearly all actives have a fitted effect of over 55% in size
# run.parameters: Gynecologic cancer cell panel viability, ATPlite luminescence, 48 h; series mostly up to 57.5 µM
Records with an inconclusive call do not appear. Calls of active or inactive are those of the source. Calls follow the shape of the dose curve; as a rule, active = well fitted cell-killing curve with a large enough effect; inconclusive = small, poorly fitted or top-dose-only effect, or effect the other way; inactive = flat fitted curve, though single readings scatter.
observable: activity change, negative = cytotoxicity

Examples with answers:
CCOC(=O)[C@H]1O[C@@H]1C(=O)N[C@@H](CC(C)C)C(=O)NCCC(C)C = inactive
CC1(C)CC[C@]2(C(=O)O[C@@H]3O[C@H](CO)[C@@H](O)[C@H](O)[C@H]3O)CC[C@]3(C)C(=CCC4[C@@]5(C)C[C@@H](O)[C@H](O)[C@@](C)(CO)C5CC[C@]43C)C2C1 (some centres not stated) = inactive
COc1cc(CC(COC2OC(CO)C(O)C(O)C2O)c2cc(/C=C/CO)cc(OC)c2O)ccc1O (configuration not stated) = inactive
Cc1coc2c1CC1OC1(C)CCC1OC1(C)C2 (configuration not stated) = inactive
CC(=O)OC[C@]12[C@H](OC(C)=O)C(=O)[C@@H]3[C@@H](OC(C)=O)[C@@]14O[C@@]3(C)COC(=O)c1cccnc1[C@@H](C)[C@H](C)C(=O)O[C@@H]([C@H](OC(C)=O)[C@@H]2OC(C)=O)[C@]4(C)O = inactive
CC1CC(=O)C2=C(O1)OC1(C)CCC3C(C)(C)C=CC(=O)C3(C)C1C2 (configuration not stated) = inactive
CC(C)CC(=O)O[C@@H]1OC=C(CO[C@@H]2O[C@H](CO[C@@H]3O[C@H](CO)[C@@H](O)[C@H](O)[C@H]3O)[C@@H](O)[C@H](O)[C@H]2O)[C@H]2C[C@H](O)[C@@H](CO)[C@@H]12 = inactive
O=C(O)CCc1cccc(O[C@@H]2O[C@H](CO)[C@@H](O)[C@H](O)[C@H]2O)c1O = inactive

Please report activity change, negative = cytotoxicity for every entry that follows.
1. C=C(C)C(C)C1OC23CC4(CO2)C(CCC2C5(C)CCC(OC6OCC(O)C(OC7OC(CO)C(O)C(OC8OCC(O)C(O)C8O)C7O)C6OC6OC(CO)C(O)C6O)C(C)(C)C5CCC24C)C3C(C)(O)C1OC(C)=O (configuration not stated)
2. C=CCc1ccc(O[C@@H]2O[C@H](CO[C@@H]3O[C@H](CO)[C@@H](O)[C@H](O)[C@H]3O)[C@@H](O)[C@H](O)[C@H]2O)c(O)c1

(A)
1. 4.55% [at 11.6 µM] (inactive)
2. inactive

Please report activity change, negative = cytotoxicity for every entry that follows.
1. O=C1C[C@@H](c2ccc(O)cc2)Oc2cc(O)ccc21
2. C[C@@H]1O[C@@H](O[C@@H]2[C@@H](O)[C@H](O[C@@H]3[C@@H](O)[C@@H](O)[C@H](O[C@H]4[C@H](OC(=O)[C@]56CCC(C)(C)C[C@H]5C5=CCC7[C@@]8(C)C[C@H](O)[C@H](O[C@@H]9O[C@H](C(=O)O)[C@@H](O)[C@H](O)[C@H]9O)[C@@](C)(CO)C8[C@H](O)C[C@@]7(C)[C@]5(C)CC6)OC[C@H](O)[C@@H]4O)O[C@H]3C)OC[C@H]2O)[C@H](O)[C@H](O)[C@H]1O (some centres not stated)

(A)
1: inactive; 2: 1.69% [at 6.55 µM] (inactive)
